Test system: HCT-116 human colon carcinoma cell line
experimental_protocol: WST-1 cell viability assay, HCT-116
Type: cell-based
measurement_setup: WST-1, 24 h treatment, mean ± S.D of three independent experiments
endpoint_name: IC50 (µM)
Numbers only here, please. The scale is µM.

[ask] Hi! What's the reported IC50 for O=c1[nH]cc(F)c(=O)[nH]1 [Compound 5-FU, 5-Florouracil, reference compound] on HCT-116 human colon carcinoma cell line?
[reply] 12.2

* * *

For each record, write down the corresponding melting point.

[ask] # lookup: melting point of COc1ccc(-c2cc(-c3ccc(OC)c(OC)c3)c(C#N)c(OCC(=O)NN=Cc3cc(OC)c(OC)c(OC)c3)n2)cc1OC [Compound 8c]
[reply] 232 to 234 °C

[ask] COc1ccc(-c2cc(-c3ccc(OC)c(OC)c3)c(C#N)c(OCC(=O)n3nc(SC)c(C#N)c3N)n2)cc1OC [Compound 13b] , same question.
[reply] 202 to 204 °C

[ask] Continue with COc1ccc(C=NNC(=O)COc2nc(-c3ccc(OC)c(OC)c3)cc(-c3ccc(OC)c(OC)c3)c2C#N)cc1 [Compound 8a]
[reply] 163 to 164 °C

[ask] // next record COc1ccc(-c2cc(-c3ccc(OC)c(OC)c3)c(C#N)c(OCC(C)=O)n2)cc1OC [Compound 4d]
[reply] 110 to 112 °C

[ask] Quick one: COc1ccc(-c2cc(-c3ccc(OC)c(OC)c3)c(C#N)c(OCC(=O)NNC(=S)SCCN3CCOCC3)n2)cc1OC [Compound 7c]
[reply] 158 to 160 °C

[ask] CCSC(=S)NNC(=O)COc1nc(-c2ccc(OC)c(OC)c2)cc(-c2ccc(OC)c(OC)c2)c1C#N [Compound 7b] ?
[reply] 144 to 146 °C

[ask] Repeat with COc1ccc(-c2cc(-c3ccc(OC)c(OC)c3)c(C#N)c(OCC(=O)NNS(=O)(=O)c3ccccc3)n2)cc1OC [Compound 10a]
[reply] 120 to 122 °C

* * *

System: MDA-MB-231 human breast adenocarcinoma cell line
experimental_protocol: WST-1 cell viability assay, MDA-MB-231
Assay type: cell-based
measurement_setup: WST-1, 24 h treatment, mean ± S.D of three independent experiments
endpoint_name: pIC50
Formally, pIC50 is defined as -log10 of the concentration c, with c in mol/L.

[ask] Query the reported pIC50 for MDA-MB-231 human breast adenocarcinoma cell line; item: O=c1[nH]cc(F)c(=O)[nH]1 [Compound 5-FU, 5-Florouracil, reference compound]
[reply] 4.82

* * *

Can you tell me melting point for the items I'm about to list?

[ask] Please report the recorded melting point for COc1ccc(C=NNC(=O)COc2nc(-c3ccc(OC)c(OC)c3)cc(-c3ccc(OC)c(OC)c3)c2C#N)cc1OC .
[reply] 190 to 192 °C

[ask] Similarly, COc1ccc(-c2cc(-c3ccc(OC)c(OC)c3)c(C#N)c(OCC(=O)n3nc(C)cc3C)n2)cc1OC ?
[reply] 161 to 163 °C

[ask] Further, for COc1ccc(C(=O)NNC(=O)COc2nc(-c3ccc(OC)c(OC)c3)cc(-c3ccc(OC)c(OC)c3)c2C#N)cc1 ?
[reply] 170 to 172 °C

[ask] Would you mind doing COc1ccc(-c2cc(-c3ccc(OC)c(OC)c3)c(C#N)c(OCC(=O)NNC(=S)SC)n2)cc1OC as well?
[reply] 151 to 153 °C

[ask] COc1ccc(S(=O)(=O)NNC(=O)COc2nc(-c3ccc(OC)c(OC)c3)cc(-c3ccc(OC)c(OC)c3)c2C#N)cc1 [Compound 10b] ?
[reply] 190 to 192 °C

[ask] Can you check COc1ccc(-c2cc(-c3ccc(OC)c(OC)c3)c(C#N)c(OCC(=O)NNC(=S)SCCN3CCCCC3)n2)cc1OC next?
[reply] 160 to 162 °C

[ask] Please do the same for COc1ccc(-c2cc(-c3ccc(OC)c(OC)c3)c(C#N)c(OCC(=O)N3N=C(C)CC3=O)n2)cc1OC as well.
[reply] 189 to 190 °C

[ask] Same question for COC(=O)c1c(SC)nn(C(=O)COc2nc(-c3ccc(OC)c(OC)c3)cc(-c3ccc(OC)c(OC)c3)c2C#N)c1N [Compound 13a] please.
[reply] 184 to 186 °C

* * *

Tested on: MDA-MB-231 human breast adenocarcinoma cell line
experimental_protocol: WST-1 cell viability assay, MDA-MB-231
Format: cell-based
measurement_setup: Homo sapiens, MDA-MB-231; WST-1, 24 h treatment, mean ± S.D of three independent experiments
Assignment: determine reported IC50 for the given compounds.
Give the quantity in µM, number only.

[ask] Identify the measured IC50 of COc1ccc(-c2cc(-c3ccc(OC)c(OC)c3)c(C#N)c(OCC(=O)NNC(=S)SCCN3CCOCC3)n2)cc1OC for MDA-MB-231 human breast adenocarcinoma cell line.
[reply] 31.7

[ask] Record: COc1ccc(-c2cc(-c3ccc(OC)c(OC)c3)c(C#N)c(OCC(=O)NN=Cc3cc(OC)c(OC)c(OC)c3)n2)cc1OC
[reply] 20.3

[ask] Query CCOC(=O)COc1nc(-c2ccc(OC)c(OC)c2)cc(-c2ccc(OC)c(OC)c2)c1C#N next
[reply] 25.1

[ask] Lookup COc1ccc(C=NNC(=O)COc2nc(-c3ccc(OC)c(OC)c3)cc(-c3ccc(OC)c(OC)c3)c2C#N)cc1
[reply] 25.3

[ask] Can you check CCSC(=S)NNC(=O)COc1nc(-c2ccc(OC)c(OC)c2)cc(-c2ccc(OC)c(OC)c2)c1C#N next?
[reply] 37.9

* * *

System: MDA-MB-231 human breast adenocarcinoma cell line
experimental_protocol: WST-1 cell viability assay, MDA-MB-231
Assay type: cell-based
measurement_setup: Homo sapiens, MDA-MB-231; WST-1, 24 h treatment, mean ± S.D of three independent experiments
Doc: threshold 30 µM (exclusive). Items with IC50 beneath it return Satisfied; others return Not satisfied.

[ask] Please determine if COc1ccc(-c2cc(-c3ccc(OC)c(OC)c3)c(C#N)c(OCC(C)=O)n2)cc1OC is below 30 µM in terms of IC50.
[reply] Not satisfied

[ask] And COc1ccc(-c2cc(-c3ccc(OC)c(OC)c3)c(C#N)c(OCC(=O)NNC(=O)c3ccccc3)n2)cc1OC ?
[reply] Satisfied

[ask] Try this molecule too: COc1ccc(-c2cc(-c3ccc(OC)c(OC)c3)c(C#N)c(OCC(=O)NNS(=O)(=O)c3ccccc3)n2)cc1OC [Compound 10a]
[reply] Satisfied

[ask] And the next one, COc1ccc(-c2cc(-c3ccc(OC)c(OC)c3)c(C#N)c(OC)n2)cc1OC ?
[reply] Not satisfied

[ask] And for COC(=O)c1c(SC)nn(C(=O)COc2nc(-c3ccc(OC)c(OC)c3)cc(-c3ccc(OC)c(OC)c3)c2C#N)c1N [Compound 13a] ?
[reply] Not satisfied

[ask] Also CCCOc1nc(-c2ccc(OC)c(OC)c2)cc(-c2ccc(OC)c(OC)c2)c1C#N , if possible.
[reply] Not satisfied

[ask] Query CCOc1nc(-c2ccc(OC)c(OC)c2)cc(-c2ccc(OC)c(OC)c2)c1C#N next
[reply] Not satisfied

[ask] Also, COc1ccc(-c2cc(-c3ccc(OC)c(OC)c3)c(C#N)c(OCc3nnc(S)o3)n2)cc1OC please.
[reply] Not satisfied

* * *

System: MCF-7 human breast adenocarcinoma cell line
experimental_protocol: WST-1 cell viability assay, MCF-7
Type: cell-based
measurement_setup: Homo sapiens, MCF7, 24 h, WST-1, 24 h treatment, mean ± S.D of three independent experiments
Protocol: The synthesized compounds were screened for their cytotoxicity on five cancer cell lines, namely SK-OV-3, MCF-7, MDA-MB-231, HCT-116 and RKO, using a WST colorimetric assay. […] Cells were trypsinized and placed in a 15 mL Falcon tube, the cells were centrifuged for 3 min at 1000 rpm. […] Cell count was done next by taking 10 μL of the suspension into the cell counting slide and read under 10× cells/mL. […]
endpoint_name: pIC50
Please note pIC50 is a logarithmic value: minus log10 of concentration in mol/L. Answer with that number alone.

[ask] Which pIC50 value is on record for COc1ccc(C=NNC(=O)COc2nc(-c3ccc(OC)c(OC)c3)cc(-c3ccc(OC)c(OC)c3)c2C#N)cc1 ?
[reply] 4.92

[ask] Now this one: COc1ccc(-c2cc(-c3ccc(OC)c(OC)c3)c(C#N)c(OCC(C)=O)n2)cc1OC
[reply] 4.69

[ask] How about this molecule: COc1ccc(-c2cc(-c3ccc(OC)c(OC)c3)c(C#N)c(OCC(=O)NN=Cc3cc(OC)c(OC)c(OC)c3)n2)cc1OC
[reply] 4.82

[ask] Subsequent entry: COc1ccc(-c2cc(-c3ccc(OC)c(OC)c3)c(C#N)c(OCC(=O)NNC(=S)SCCN3CCOCC3)n2)cc1OC
[reply] 5.15

* * *

Test system: MDA-MB-231 human breast adenocarcinoma cell line
experimental_protocol: WST-1 cell viability assay, MDA-MB-231
Assay type: cell-based
measurement_setup: Homo sapiens, MDA-MB-231; WST-1, 24 h treatment, mean ± S.D of three independent experiments
Give measured pIC50 for each item. Keep answers brief.
Units for pIC50: none; it is -log10 of a concentration expressed in mol/L.

[ask] Which pIC50 is reported for this compound? COc1ccc(-c2cc(-c3ccc(OC)c(OC)c3)c(C#N)c(OCC(=O)NNC(=S)SCCN3CCCCC3)n2)cc1OC
[reply] 4.45

[ask] Okay, and COc1ccc(C(=O)NNC(=O)COc2nc(-c3ccc(OC)c(OC)c3)cc(-c3ccc(OC)c(OC)c3)c2C#N)cc1 ?
[reply] 4.72

[ask] How about COc1ccc(C=NNC(=O)COc2nc(-c3ccc(OC)c(OC)c3)cc(-c3ccc(OC)c(OC)c3)c2C#N)cc1OC ?
[reply] 4.49

[ask] And then COc1ccc(-c2cc(-c3ccc(OC)c(OC)c3)c(C#N)c(OCC(=O)NNC(=S)SC)n2)cc1OC , what is it?
[reply] 4.52

[ask] Proceed to COc1ccc(S(=O)(=O)NNC(=O)COc2nc(-c3ccc(OC)c(OC)c3)cc(-c3ccc(OC)c(OC)c3)c2C#N)cc1 [Compound 10b]
[reply] 4.65
